System: SK-MEL-5 melanoma
procedure-summary: NCI-60 one-dose screen, 48 h
conditions: 10 µM unless noted
The panel holds about 83,000 compounds, 20% with a hit somewhere; the sample as a whole holds those more often. Calls of active or inactive are those of the source. Rule for the calls: active = growth percent below 10; inactive = the rest.
Use one of these outcomes when replying: active, inactive

Given CC(=O)c1c(OCC#N)ccc2c(C)cc(=O)oc12 , state the outcome it received in this test.
inactive

Given CN(C)C(CNc1oc(-c2cccc3ccccc23)nc1C#N)c1ccco1 (stereo not drawn) , state the outcome it received in this test.
inactive

Given COc1ccc(NC(=O)c2ccc(Nc3ncnc4[nH]c(C)c(C)c34)cc2)cc1 , state the outcome it received in this test.
inactive

Given COC(=O)/C=C/c1cc(OC)c2c(c1)[C@@H](C(=O)OC)[C@H](c1ccc(OC)c(OC)c1)O2 , state the outcome it received in this test.
active

Given C=CCn1c(SCC(=O)Nc2ccc(C(=O)/C=C/c3cc(OC)c(OC)c(OC)c3)cc2)nnc1-c1ccccc1 , state the outcome it received in this test.
inactive

Given O=C1C(Cl)=C(Nc2ccc3c(c2NC2=C(Cl)C(=O)c4ccccc4C2=O)C(=O)c2ccccc2C3=O)C(=O)c2ccccc21 , state the outcome it received in this test.
active

Given COc1ccc(/C=C/C(=O)Nc2ncnc3nc[nH]c23)cc1 , state the outcome it received in this test.
inactive

Given C=C(C)[C@@H]1CC[C@]2(C(=O)O)CC[C@]3(C)[C@H](CC[C@@H]4[C@@]5(C)C[C@@H](CC#Cc6ccc(Cl)cc6)C(=O)C(C)(C)[C@@H]5CC[C@]43C)[C@@H]12 , state the outcome it received in this test.
inactive
